assay: Release in artificial intestinal juice; type: physicochemical; conditions: t 6 min; permeable bag, amount calculated on 100 mg free base
OUTCOME_MEASURE: Release in artificial intestinal juice, percent of the substance released (%)
Return type: number; implicit unit %.

Worked cases, answers included:
COMPOUND	RECORDED_RESULT
CN(C)C[C@H]1CCCC[C@]1(O)c1cccc(O)c1.Cl [HCl-1]	98.77
CN(C)CC1CCCCC1(O)c1cccc(O)c1.CN(C)CC1CCCCC1(O)c1cccc(O)c1.O=C(O)C=CC(=O)O (centres unmarked) [E-1]	99.24

Suppose we examine the compound CN(C)CC1CCCCC1(O)c1cccc(O)c1.CN(C)CC1CCCCC1(O)c1cccc(O)c1.O=C(O)CCCCCCCCC(=O)O (centres unmarked) [F-1] ; what Release in artificial intestinal juice, percent of the substance released value has been reported? 98.37

Suppose we examine the compound CN(C)CC1CCCCC1(O)c1cccc(O)c1.CN(C)CC1CCCCC1(O)c1cccc(O)c1.O=C(O)C=CC(=O)O (centres unmarked) [E-2] ; what Release in artificial intestinal juice, percent of the substance released value has been reported? 95.80

Suppose we examine the compound CN(C)CC1CCCCC1(O)c1cccc(O)c1.O=C(O)C=Cc1ccccc1 (centres unmarked) [A-2] ; what Release in artificial intestinal juice, percent of the substance released value has been reported? 86.98

Suppose we examine the compound CCCCCCCCCC(=O)O.CN(C)CC1CCCCC1(O)c1cccc(O)c1 (centres unmarked) [C-2] ; what Release in artificial intestinal juice, percent of the substance released value has been reported? 99.74

Suppose we examine the compound CN(C)CC1CCCCC1(O)c1cccc(O)c1.O=C(O)C=Cc1ccccc1 (centres unmarked) [A-1] ; what Release in artificial intestinal juice, percent of the substance released value has been reported? 84.48

Suppose we examine the compound CN(C)CC1CCCCC1(O)c1cccc(O)c1.CN(C)CC1CCCCC1(O)c1cccc(O)c1.O=C(O)CCCCCCCCC(=O)O (centres unmarked) [F-2] ; what Release in artificial intestinal juice, percent of the substance released value has been reported? 100.16

---

experiment: Determination of equilibrium solubilities in aqueous solutions at various pHs; conditions: aqueous with cosolvent or surfactant or cyclodextrin, thermodynamic from solid
OUTCOME_MEASURE: solubility thermodynamic (mM)
Return type: number; implicit unit mM.

Suppose we examine the compound CN(C)C[C@H]1CCCC[C@]1(O)c1cccc(O)c1.Cl [hydrochloride] ; what solubility thermodynamic value has been reported? 1090

---

test: Release in artificial intestinal juice; type: physicochemical; conditions: t 30 min; permeable bag, amount calculated on 100 mg free base
OUTCOME_MEASURE: Release in artificial intestinal juice, percent of the substance released

Worked cases, answers included:
COMPOUND	RECORDED_RESULT
CN(C)CC1CCCCC1(O)c1cccc(O)c1.O=C(O)C=Cc1ccccc1 (stereo not shown) [A-1]	102.44%
CN(C)C[C@H]1CCCC[C@]1(O)c1cccc(O)c1.Cl [HCl-2]	99.96%
CN(C)C[C@H]1CCCC[C@]1(O)c1cccc(O)c1.Cl [HCl-1]	101.02%
CN(C)CC1CCCCC1(O)c1cccc(O)c1.O=C(O)C=Cc1ccccc1 (stereo not shown) [A-2]	98.80%
CN(C)CC1CCCCC1(O)c1cccc(O)c1.CN(C)CC1CCCCC1(O)c1cccc(O)c1.O=C(O)CCCCCCCCC(=O)O (stereo not shown) [F-1]	98.74%

Suppose we examine the compound CN(C)CC1CCCCC1(O)c1cccc(O)c1.CN(C)CC1CCCCC1(O)c1cccc(O)c1.O=C(O)C=CC(=O)O (stereo not shown) [E-2] ; what Release in artificial intestinal juice, percent of the substance released value has been reported? 96.42%

Suppose we examine the compound CCCCCCCCCCCCCCCC(=O)O.CN(C)CC1CCCCC1(O)c1cccc(O)c1 ; what Release in artificial intestinal juice, percent of the substance released value has been reported? 95.50%

Data credit: patent US20110251286A1
